From: paper PMC11439047

- ASSAYED SYSTEM: WT-P2X1 receptor (Homo sapiens, UniProt P51575)
- Sequence (P51575 whole entry): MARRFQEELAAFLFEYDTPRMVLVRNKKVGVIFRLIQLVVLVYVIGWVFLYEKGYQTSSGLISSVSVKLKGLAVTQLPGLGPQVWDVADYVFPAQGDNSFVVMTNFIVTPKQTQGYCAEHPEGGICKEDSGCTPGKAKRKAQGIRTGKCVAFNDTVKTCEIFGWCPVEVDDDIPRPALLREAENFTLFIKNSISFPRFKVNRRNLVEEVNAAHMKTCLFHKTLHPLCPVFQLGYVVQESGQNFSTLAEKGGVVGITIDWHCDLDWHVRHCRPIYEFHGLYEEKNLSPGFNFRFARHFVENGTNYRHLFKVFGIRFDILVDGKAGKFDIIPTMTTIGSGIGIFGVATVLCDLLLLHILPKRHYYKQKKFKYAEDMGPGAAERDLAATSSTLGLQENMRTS
- ASSAY EXPLANATION: Calcium ion influx assay
- TEST CONDITIONS: read-out: potency; WT-P2X1, Fig. 4B
RECORDED ENDPOINT: EC50 (nM)
Note: unit nM is implicit; provide only the numeric part.

IN: # input molecule: Nc1ncnc2c1ncn2[C@@H]1O[C@H](COP(=O)(O)CP(=O)(O)OP(=O)(O)O)[C@@H](O)[C@H]1O ; wanted: its EC50
OUT: 99
